target: T1, recombinant human IL-13 (human, UniProt P35225 35-146, limits assumed); assay: SPR Biacore 3000, antibody captured, cytokine in solution
T1 construct: Bought reagent; also called wild type IL-13
T1 sequence (P35225 35-146 limits assumed): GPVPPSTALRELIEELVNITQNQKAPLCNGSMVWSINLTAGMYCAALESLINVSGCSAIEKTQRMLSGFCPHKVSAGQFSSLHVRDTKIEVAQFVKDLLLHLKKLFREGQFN
Collected pKd values appear next to each entry.
pKd is defined as minus the log10 of a concentration measured in mol/L.

Observe how each entry below is paired with its result.
huB-B13 VL1 × VH1 (antibody, V domains shown, Expressed as a whole antibody, purified on Protein A; also called humanized B-B13 VL1xVH1) VH: EVQLKESGPGLVAPGGSLSITCTVSGFSLTDSSINWVRQPPGKGLEWLGMIWGDGRIDYNDALKSRLSISKDNSKSQVFLEMNSLRTDDTATYYCARDGYFPYAMDFWGQGTSVTVSS VL: DIVLTQSPASLAVSLGQRATISCRASESVDSYGNSYMHWYQQKAGQPPKLLIYLASNLESGVPARFSGSGSRTDFTLTIDPVQAEDAATYYCQQNNEDPRTFGGGTKLEIK | 9.40
huB-B13 VL2 × VH2 (antibody, V domains shown, Expressed as a whole antibody, purified on Protein A; also called humanized B-B13 VL2xVH2) VH: EVQLKESGPGLVAPGGSLSITCTVSGFSLTDSSINWVRQPPGKGLEWLGMIWGDGRIDYADALKSRLSISKDSSKSQVFLEMTSLRTDDTATYYCARDGYFPYAMDFWGQGTSVTVSS VL: DIVLTQSPASLAVSLGQRATISCRASESVDSYGNSYMHWYQQKAGQPPKLLIYLASNLESGVPARFSGSGSRTDFTLTIDPVQAEDAATYYCQQNNEDSRTFGGGTKLEIK | 9.80

Request: Query: pKd; subject: huB-B13 VL3 × VH2 (antibody, V domains shown, Expressed as a whole antibody, purified on Protein A; also called huB-B13 VL3xVH2; humanized B-B13 VL3xVH2) VH: EVQLKESGPGLVAPGGSLSITCTVSGFSLTDSSINWVRQPPGKGLEWLGMIWGDGRIDYADALKSRLSISKDSSKSQVFLEMTSLRTDDTATYYCARDGYFPYAMDFWGQGTSVTVSS VL: DIVLTQSPASLAVSLGQRATISCRASESVDSYGQSYMHWYQQKAGQPPKLLIYLASNLESGVPARFSGSGSRTDFTLTIDPVQAEDAATYYCQQNAEDSRTFGGGTKLEIK
Result: 10.36
